# System name: human somatostatin receptor subtype SSTR2 (Homo sapiens)
# Sequence (P30874 whole entry): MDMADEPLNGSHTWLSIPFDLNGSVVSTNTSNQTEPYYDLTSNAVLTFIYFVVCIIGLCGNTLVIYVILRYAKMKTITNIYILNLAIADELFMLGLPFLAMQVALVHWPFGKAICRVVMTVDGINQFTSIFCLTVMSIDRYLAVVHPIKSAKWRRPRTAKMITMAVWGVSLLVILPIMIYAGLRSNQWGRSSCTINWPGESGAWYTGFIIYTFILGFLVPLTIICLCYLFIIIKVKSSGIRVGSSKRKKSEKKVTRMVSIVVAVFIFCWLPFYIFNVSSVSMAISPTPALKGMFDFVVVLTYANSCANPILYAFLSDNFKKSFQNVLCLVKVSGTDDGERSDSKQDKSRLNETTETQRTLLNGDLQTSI
Measurement label: Ki

>>> reading("Cc1ccc(S(=O)(=O)N[C@@H](CCN)C(=O)N[C@@H](Cc2ccccc2)C(N)=O)c2ccccc12 [Compound 2]")
"> 5 µM"

Ask | Record Cc1ccc(S(=O)(=O)NC(CCCNC(C)C)C(=O)NC2CCCc3ccccc32)c2ccccc12 (centres unmarked) [Compound 17] : what is its Ki with human somatostatin receptor subtype SSTR2 (Homo sapiens)?
Reply | > 10 µM

---

# System name: human somatostatin receptor subtype SSTR1 (Homo sapiens, UniProt P30872)
# Construct: expressed in transfected cells; host or cells: CHO cells (membranes)
# Sequence (P30872 whole entry): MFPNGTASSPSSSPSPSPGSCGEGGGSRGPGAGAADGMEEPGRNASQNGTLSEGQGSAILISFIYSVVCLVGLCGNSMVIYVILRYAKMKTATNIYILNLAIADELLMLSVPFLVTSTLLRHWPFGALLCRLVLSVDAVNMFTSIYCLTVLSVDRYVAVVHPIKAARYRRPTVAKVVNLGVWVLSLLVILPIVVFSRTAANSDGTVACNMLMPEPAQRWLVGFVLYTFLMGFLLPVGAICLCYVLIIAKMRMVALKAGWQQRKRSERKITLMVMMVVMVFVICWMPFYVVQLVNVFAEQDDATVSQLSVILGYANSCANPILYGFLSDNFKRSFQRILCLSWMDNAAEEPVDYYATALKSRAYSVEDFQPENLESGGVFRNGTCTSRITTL
# Assay summary: Competition binding with 125I-LTT-sst-28, human somatostatin receptor subtype SSTR1
# Assay context: same protocol; less than 300 nM; read-out: Ki for SSTR1 (bound)
pKi: −log10 of the molar value.
Measurement label: pKi

Some compounds with recorded pKi:
>>> reading("Cc1ccc(S(=O)(=O)NC(CCN)C(=O)NC2CCCc3ccccc32)c2ccccc12 (stereo not shown) [Compound 18]")
"> 6.52"
>>> reading("CNCC[C@H](NS(=O)(=O)c1ccc(C)c2ccccc12)C(=O)NCCc1cccc(Cl)c1 [Compound 23]")
"> 6.52"

Ask | Given the entry Cc1ccc(S(=O)(=O)N[C@@H](CCNC(C)C)C(=O)NCc2ccccc2)c2ccccc12 [Compound 3] , what pKi was observed with human somatostatin receptor subtype SSTR1 (Homo sapiens, UniProt P30872)?
Reply | > 6.52

Ask | Tell me reported pKi for Cc1ccc(S(=O)(=O)N[C@@H](CCCN)C(=O)N[C@@H](Cc2ccccc2)C(N)=O)c2ccccc12 [Compound 7] , tested with human somatostatin receptor subtype SSTR1 (Homo sapiens, UniProt P30872).
Reply | > 6.52

Ask | Give recorded pKi with human somatostatin receptor subtype SSTR1 (Homo sapiens, UniProt P30872) for the following compound: Cc1ccc(S(=O)(=O)N[C@@H](CCCN)C(=O)N[C@@H](Cc2cccc(Cl)c2)C(N)=O)c2ccccc12 [Compound 21]
Reply | > 6.52

Ask | human somatostatin receptor subtype SSTR1 (Homo sapiens, UniProt P30872) / pKi / Cc1ccc(S(=O)(=O)N[C@@H](CCCNC(=N)N)C(=O)N[C@@H](Cc2ccccc2)C(N)=O)c2ccccc12 [Compound 5] : value?
Reply | > 6.52

Ask | So what pKi did N=C(N)NCCC[C@H](NS(=O)(=O)c1ccc2ccccc2c1)C(=O)N[C@@H](Cc1ccccc1)C(N)=O [Compound 15] get with human somatostatin receptor subtype SSTR1 (Homo sapiens, UniProt P30872)?
Reply | > 6.52
